# TARGET_OR_SYSTEM: EGFR (HCC827 cells) (Homo sapiens, UniProt P00533, DEL746-750)
# Construct: endogenous in cells; host or cells: HCC827
# Sequence (P00533 with tags, fused parts or gaps DEL746-750): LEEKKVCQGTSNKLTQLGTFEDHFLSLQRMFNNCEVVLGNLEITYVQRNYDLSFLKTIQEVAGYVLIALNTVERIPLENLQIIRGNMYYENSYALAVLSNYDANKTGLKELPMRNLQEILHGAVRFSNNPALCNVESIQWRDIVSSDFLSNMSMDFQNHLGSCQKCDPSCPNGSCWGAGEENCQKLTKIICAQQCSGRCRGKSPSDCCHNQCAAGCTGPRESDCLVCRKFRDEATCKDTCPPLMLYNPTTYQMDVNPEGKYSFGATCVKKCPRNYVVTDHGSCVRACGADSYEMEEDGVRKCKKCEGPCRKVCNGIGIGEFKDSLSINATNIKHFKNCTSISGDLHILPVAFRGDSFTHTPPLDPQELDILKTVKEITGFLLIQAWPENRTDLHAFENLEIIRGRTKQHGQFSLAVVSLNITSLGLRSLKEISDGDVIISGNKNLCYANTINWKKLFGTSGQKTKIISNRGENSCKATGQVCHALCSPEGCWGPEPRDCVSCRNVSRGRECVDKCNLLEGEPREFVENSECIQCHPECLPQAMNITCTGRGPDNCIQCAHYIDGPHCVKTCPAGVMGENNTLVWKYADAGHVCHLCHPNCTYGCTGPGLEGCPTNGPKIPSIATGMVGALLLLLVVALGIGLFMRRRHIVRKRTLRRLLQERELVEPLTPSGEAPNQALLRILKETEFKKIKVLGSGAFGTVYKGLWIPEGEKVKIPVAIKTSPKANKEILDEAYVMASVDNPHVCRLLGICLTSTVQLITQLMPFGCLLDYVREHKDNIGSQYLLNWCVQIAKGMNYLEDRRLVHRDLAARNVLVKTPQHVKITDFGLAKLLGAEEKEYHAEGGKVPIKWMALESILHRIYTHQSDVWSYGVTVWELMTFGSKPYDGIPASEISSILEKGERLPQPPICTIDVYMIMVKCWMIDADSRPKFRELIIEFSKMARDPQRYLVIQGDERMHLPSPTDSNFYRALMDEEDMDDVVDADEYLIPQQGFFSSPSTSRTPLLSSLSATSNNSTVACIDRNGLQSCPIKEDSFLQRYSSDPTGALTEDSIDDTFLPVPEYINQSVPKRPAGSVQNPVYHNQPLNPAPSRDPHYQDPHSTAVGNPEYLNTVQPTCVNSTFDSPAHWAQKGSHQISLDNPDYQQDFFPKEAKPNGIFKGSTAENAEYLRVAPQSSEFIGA
# METHOD_NOTES: EGFR degradation HTRF assay, HCC827 cells
# Type: cell-based
# EXPERIMENTAL_PARAMETERS: HCC827, 16h treatment
REPORTED_ENDPOINT: DC50 (nM)

Example entries and their recorded answers appear below.
{"COMPOUND": "CN(c1ccccc1Nc1nc(Nc2ccc(N3CC4(CN(CCc5ccc(NC6CCC(=O)NC6=O)cc5)C4)C3)c(F)c2)ncc1Cl)S(C)(=O)=O (centres unmarked)", "DC50, nM": 68.5}
{"COMPOUND": "COc1cc(N2CCN(CCCC(=O)N[C@H](C(=O)N3C[C@H](O)C[C@H]3C(=O)N[C@@H](C)c3ccc(-c4scnc4C)cc3)C(C)(C)C)CC2)c(C)cc1Nc1ncc(Br)c(Nc2ccc3nccnc3c2P(C)(C)=O)n1", "DC50, nM": 70.1}

I. COc1cc(N2CCC(N3CCN(CCc4ccc(C5CCC(=O)NC5=O)cc4)CC3)CC2)ccc1Nc1ncc(Cl)c(Nc2ccccc2NS(C)(=O)=O)n1 (centres unmarked)
II. CCc1cc(Nc2ncc(Br)c(Nc3ccc4nccnc4c3P(C)(C)=O)n2)c(OC)cc1N1CCC(N2CCN(C(=O)CC3CN(c4ccc5c(c4)C(=O)N(C4CCC(=O)NC4=O)C5=O)C3)CC2)CC1 (centres unmarked)
III. CCc1cc(Nc2ncc(Br)c(Nc3ccc4nccnc4c3P(C)(C)=O)n2)c(OC)cc1N1CCC(N2CCN(C(=O)C3CCN(CC4CCN(c5ccc6c(c5)C(=O)N(C5CCC(=O)NC5=O)C6=O)CC4)CC3)CC2)CC1 (centres unmarked)
List items by DC50 in falling order. Output spec: a listing of the labels in the requested order. I, II, III
